Where do the numbers come from? From ChEMBL document CHEMBL4334508.

IC50 tested on Protease (Human immunodeficiency virus 1, UniProt Q9YQ12): recorded values
Sequence (Q9YQ12 whole entry): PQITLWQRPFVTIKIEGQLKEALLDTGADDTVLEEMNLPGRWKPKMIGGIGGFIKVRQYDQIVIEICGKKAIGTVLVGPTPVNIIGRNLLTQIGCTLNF

Some entries whose results are on file:
- GIVEN_SMILES: "CC1(C)CC[C@]2(C(=O)NCCCC(=O)NCC(=O)O)CC[C@]3(C)C(=CC[C@@H]4[C@@]5(C)CC[C@H](OC(=O)c6ccccc6)C(C)(C)[C@@H]5CC[C@]43C)[C@@H]2C1"
  MEASURED_ON: "Protease (Human immunodeficiency virus 1, UniProt Q9YQ12)"
  IC50: "> 50 µM"
- GIVEN_SMILES: "CCCCCCCCCCCC(=O)O[C@H]1CC[C@]2(C)[C@H]3CC=C4[C@@H]5CC(C)(C)CC[C@]5(C(=O)NCCCCCCCCCCC(=O)O)CC[C@@]4(C)[C@]3(C)CC[C@H]2C1(C)C"
  MEASURED_ON: "Protease (Human immunodeficiency virus 1, UniProt Q9YQ12)"
  IC50: "> 50 µM"

Please look at CC1(C)CC[C@]2(C(=O)NCCCCCC(=O)O)CC[C@]3(C)C(=CC[C@@H]4[C@@]5(C)CC[C@H](OC(=O)c6ccccc6)C(C)(C)[C@@H]5CC[C@]43C)[C@@H]2C1 and tell me its recorded IC50 on Protease (Human immunodeficiency virus 1, UniProt Q9YQ12). > 50 µM
